MEASURED TARGET: RIPK1 kinase (Homo sapiens, UniProt Q13546)
Construct: purchased Promega VA7593
Sequence (Q13546 1-671): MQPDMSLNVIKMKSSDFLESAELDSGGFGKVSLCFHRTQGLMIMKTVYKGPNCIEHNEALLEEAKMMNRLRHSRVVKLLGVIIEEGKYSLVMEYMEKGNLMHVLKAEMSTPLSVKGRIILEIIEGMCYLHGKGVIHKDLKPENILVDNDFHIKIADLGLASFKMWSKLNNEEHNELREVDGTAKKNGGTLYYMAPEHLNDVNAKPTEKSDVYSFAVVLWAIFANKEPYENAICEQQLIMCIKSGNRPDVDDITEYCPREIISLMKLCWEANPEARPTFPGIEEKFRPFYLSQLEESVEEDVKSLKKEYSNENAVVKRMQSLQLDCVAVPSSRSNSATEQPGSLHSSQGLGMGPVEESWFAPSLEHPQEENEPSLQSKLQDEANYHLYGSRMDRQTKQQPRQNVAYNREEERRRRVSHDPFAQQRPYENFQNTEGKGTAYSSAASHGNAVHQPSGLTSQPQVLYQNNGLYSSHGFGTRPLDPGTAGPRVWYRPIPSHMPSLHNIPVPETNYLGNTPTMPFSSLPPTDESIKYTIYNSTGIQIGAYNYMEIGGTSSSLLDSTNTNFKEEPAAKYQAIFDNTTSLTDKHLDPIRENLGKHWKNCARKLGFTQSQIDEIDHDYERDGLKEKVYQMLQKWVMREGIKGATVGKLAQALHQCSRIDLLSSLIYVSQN
PROTOCOL: In vitro RIPK1 kinase activity assay (ADP-Glo), inhibition by compounds at 1 μM
Assay type: biochemical
CONDITION SET: compound 1 μM; ATP 10 μM; MBP substrate 100 μg/mL; read-out: RIPK1 kinase activity inhibition rate range
REPORTED PROPERTY: inhibition at 1 µM

Some entries whose results are on file:
[
  {
    "MOLECULE": "CN1C(=O)[C@H](NC(=O)C(=O)NCCc2cccc(F)c2)COc2ccc(C#CCCO)cc21",
    "VALUE REPORTED": "≥ 75%"
  },
  {
    "MOLECULE": "CN1C(=O)[C@@H](NC(=O)C(=O)NCCc2ccccc2)COc2ccc(C#CC3CCN(CCOCCOCC(=O)Nc4cccc5c4CN(C4CCC(=O)NC4=O)C5=O)CC3)cc21 (some centres unmarked)",
    "VALUE REPORTED": "25 to 49%"
  },
  {
    "MOLECULE": "CN1C(=O)[C@@H](NC(=O)C(=O)NCc2ccc(F)cc2)COc2ccc(C#CCCO)cc21",
    "VALUE REPORTED": "≥ 75%"
  },
  {
    "MOLECULE": "CN1C(=O)[C@@H](NC(=O)C(=O)NCCc2ccccc2)COc2cc(O)ccc21",
    "VALUE REPORTED": "≥ 75%"
  },
  {
    "MOLECULE": "CN1C(=O)[C@@H](NC(=O)C(=O)NCCc2ccccc2)COc2ccc(C#Cc3ccccn3)cc21",
    "VALUE REPORTED": "≥ 75%"
  }
]

Query string: Record lookup: for RIPK1 kinase (Homo sapiens, UniProt Q13546), what inhibition at 1 µM belongs to `CN1C(=O)[C@@H](NC(=O)C(=O)NCCOc2ccccc2)COc2ccccc21` ?
Result string: 25 to 49%

Query string: Another molecule to look at: `CN1C(=O)[C@@H](NC(=O)C(=O)NCCc2cccc(F)c2)COc2ccc(C#CCN3CCC(=O)C3)cc21`
Result string: 25 to 49%

Query string: Another molecule to look at: CN1C(=O)C(NC(=O)C(=O)NCCc2ccccc2)CCc2ccc(C#CCCO)cc21 (centres unmarked)
Result string: ≥ 75%

Query string: Another molecule to look at: `C[C@@H](NC(=O)C(=O)N[C@H]1COc2ccc(C#CCN3CCNCC3)cc2N(C)C1=O)c1ccccc1`
Result string: ≥ 75%

Query string: Another molecule to look at: `CN1C(=O)[C@@H](NC(=O)C(=O)NCCc2ccccc2)COc2ccc(C#CC3CCOCC3)cc21`
Result string: ≥ 75%

Query string: Another molecule to look at: `COC1(C#Cc2ccc3c(c2)N(C)C(=O)[C@@H](NC(=O)C(=O)NCCc2ccccc2)CO3)COC1`
Result string: 50 to 74%

Query string: Another molecule to look at: `COC(=O)C1(C#Cc2ccc3c(c2)N(C)C(=O)[C@@H](NC(=O)C(=O)NCCc2ccccc2)CO3)CC1`
Result string: ≥ 75%

Query string: Another molecule to look at: `C[C@@H](NC(=O)C(=O)N[C@H]1COc2ccc(C#CCN3CC[C@@H](O)C3)cc2N(C)C1=O)c1ccccc1`
Result string: ≥ 75%

---

MEASURED TARGET: RIPK1 kinase (Homo sapiens)
Construct: purchased Promega VA7593
PROTOCOL: In vitro RIPK1 kinase activity assay (ADP-Glo), inhibition by compounds at 1 μM
Type: biochemical
CONDITION SET: compound 1 μM; ATP 10 μM; MBP substrate 100 μg/mL; read-out: RIPK1 kinase activity inhibition rate range
Method: RIPK1 kinase activity was assayed using the ADP-Glo assay and RIPK1 kinase reaction system (Promega, catalog number: VA7593). The RIPK1 kinase activity assay was performed according to the Promega kit manual. The experimental method was briefly described as below. The concentration of RIPK1 kinase in the RIPK1 kinase reaction system was determined by kinase titration and S/B10. […] The chemiluminescent signal was read by a microplate reader and the inhibition rate of kinase activity was calculated.
Consider the following molecules and their measured inhibition at 1 µM readings.

Some entries whose results are on file:
[
  {
    "COMPOUND SMILES": "C[C@@H](NC(=O)C(=O)N[C@H]1COc2ccc(C#CCN3CCNC(=O)C3)cc2N(C)C1=O)c1ccccc1",
    "inhibition at 1 µM": "≥ 75%"
  },
  {
    "COMPOUND SMILES": "CN1C(=O)[C@@H](NC(=O)C(=O)NCc2ccccc2)COc2ccc(C#CCN3CCOCC3)cc21",
    "inhibition at 1 µM": "≥ 75%"
  },
  {
    "COMPOUND SMILES": "CN1C(=O)[C@@H](NC(=O)C(=O)NCCc2ccccc2)COc2ccc(C#CCOc3ccccc3)cc21",
    "inhibition at 1 µM": "≥ 75%"
  },
  {
    "COMPOUND SMILES": "C/C(C#Cc1ccc2c(c1)N(C)C(=O)[C@@H](NC(=O)C(=O)NCCc1ccccc1)CO2)=C/CO",
    "inhibition at 1 µM": "≥ 75%"
  },
  {
    "COMPOUND SMILES": "CN1C(=O)[C@@H](NC(=O)C(=O)NCCc2cccc(Cl)c2)COc2ccccc21",
    "inhibition at 1 µM": "25 to 49%"
  }
]

Query string: Quick check: inhibition at 1 µM of `CN1C(=O)[C@@H](NC(=O)C(=O)NC(C)(C)c2ccccc2)COc2ccc(C#CCN3CCOCC3)cc21` ?
Result string: ≥ 75%

Query string: Another molecule to look at: `C[C@@H](Cc1ccccc1)NC(=O)C(=O)N[C@H]1COc2ccc(C#CCCO)cc2N(C)C1=O`
Result string: 50 to 74%

---

Consider the following molecules and their measured pEC50 readings.
System: U937 cells
PROTOCOL: EC50 of necroptosis inhibition in U937 cells (TSZ-induced, CellTiter-Glo)
Type: cell-based
CONDITION SET: Homo sapiens, U-937; TSZ (hTNF-α, SM-164, Z-VAD-FMK) 20 hours; 10 concentration points; read-out: EC50 intervals of necroptosis inhibition in U937 cells
pEC50: −log10 of the molar value.

Some entries whose results are on file:
[
  {
    "MOLECULE": "CN1C(=O)[C@@H](NC(=O)C(=O)NCCc2cccc(F)c2)COc2ccccc21",
    "pEC50": "6.30 to 7.00"
  },
  {
    "MOLECULE": "CN1C(=O)[C@@H](NC(=O)C(=O)NCCc2ccccc2)COc2cc(C#CC3CC3)ccc21",
    "pEC50": "5.70 to 6.30"
  },
  {
    "MOLECULE": "C[C@@H](NC(=O)C(=O)N[C@H]1COc2ccc(C#CC3CN(CCO)C3)cc2N(C)C1=O)c1ccccc1",
    "pEC50": "> 7.00"
  }
]

Please turn your attention to the following entry.
Query string: Quick check: pEC50 of CN1C(=O)[C@@H](NC(=O)C(=O)NCCc2ccccc2)COc2ccc(C#CCN)cc21.Cl [Example 87, hydrochloride] ?
Result string: 5.70 to 6.30

---

MEASURED TARGET: RIPK1 kinase (Homo sapiens)
Construct: purchased Promega VA7593
PROTOCOL: In vitro RIPK1 kinase activity assay (ADP-Glo), inhibition by compounds at 1 μM
Format: biochemical
CONDITION SET: compound 1 μM; ATP 10 μM; MBP substrate 100 μg/mL; read-out: RIPK1 kinase activity inhibition rate range
REPORTED PROPERTY: inhibition at 1 µM

Some entries whose results are on file:
[
  {
    "MOLECULE": "CN1C(=O)[C@@H](NC(=O)C(=O)NCCc2ccccc2)COc2ccc(C#CCN3CCN(CCO)CC3)cc21",
    "inhibition at 1 µM": "≥ 75%"
  },
  {
    "MOLECULE": "CN1CCC(CC#Cc2ccc3c(c2)N(C)C(=O)[C@@H](NC(=O)C(=O)NCCc2ccccc2)CO3)C1=O (mixture of isomers)",
    "inhibition at 1 µM": "≥ 75%"
  },
  {
    "MOLECULE": "CN1C(=O)[C@@H](NC(=O)C(=O)NCCc2cccc(F)c2)COc2ccc(C#CC3CCCNC3)cc21 (some centres unmarked)",
    "inhibition at 1 µM": "50 to 74%"
  }
]

Query string: Record lookup: for RIPK1 kinase (Homo sapiens), what inhibition at 1 µM belongs to `C=CCOc1ccc2c(c1)N(C)C(=O)[C@@H](NC(=O)C(=O)NCCc1ccccc1)CO2` ?
Result string: ≥ 75%

Query string: Another molecule to look at: C[C@@H](NC(=O)C(=O)N[C@H]1COc2ccc(C#CCN3CCN(CCOCCOCCOCCC(=O)Nc4cccc5c4CN(C4CCC(=O)NC4=O)C5=O)CC3)cc2N(C)C1=O)c1ccccc1 (mixture of isomers)
Result string: ≥ 75%

Query string: Another molecule to look at: `COc1ccc2c(c1)N(C)C(=O)[C@@H](NC(=O)C(=O)NCCc1ccccc1)CO2`
Result string: ≥ 75%

Query string: Another molecule to look at: `C[C@@H](NC(=O)C(=O)N[C@H]1CN(C)c2ccc(C#CCN3CCOCC3)cc2N(C)C1=O)c1ccccc1`
Result string: 25 to 49%

Query string: Another molecule to look at: `CN1C(=O)[C@@H](NC(=O)C(=O)NCCc2cccc(F)c2)COc2ccc(C#Cc3cccnc3)cc21`
Result string: 50 to 74%

Query string: Another molecule to look at: `Cc1ccccc1CNC(=O)C(=O)N[C@H]1COc2ccc(C#CCN3CCNC(=O)C3)cc2N(C)C1=O`
Result string: ≥ 75%

Query string: Another molecule to look at: `CN1C(=O)[C@@H](NC(=O)C(=O)NCCc2ccccc2)COc2ccc(C#CC3(O)COC3)cc21`
Result string: ≥ 75%

Query string: Another molecule to look at: `C[C@@H](NC(=O)C(=O)N[C@H]1COc2ccc(C#CC3CN(CC#N)C3)cc2N(C)C1=O)c1ccccc1`
Result string: ≥ 75%

Query string: Another molecule to look at: `CN1C(=O)[C@@H](NC(=O)C(=O)NCCc2ccccc2)COc2ccc(O)cc21`
Result string: 50 to 74%

Query string: Another molecule to look at: `CN1C(=O)[C@@H](NC(=O)C(=O)NCCc2ccccc2)COc2ccc(C#CC(C)(C)O)cc21`
Result string: ≥ 75%

Query string: Another molecule to look at: `CN1C(=O)[C@@H](NC(=O)C(=O)NCCc2ccccc2)COc2ccc(C#CCN3C(=O)CCC3=O)cc21`
Result string: ≥ 75%
